Reported Herbicidal effect rating, ORYSAT is given for each of the following compounds.
Test system: ORYZA SATIVA, L. TEBONNET
Experiment: Rice tolerance to post-transplant applications under flooded paddy conditions, ORYSAT (Rice, Tebonnet)
Assay type: in vivo
Details: 0.500 kg/ha, post-transplant rice, 3-4 weeks after treatment
Number only, no unit.

Known results for compounds:
[[record]]
compound = "COC(=O)Cn1c(=O)n(C)c(=O)n(-c2cc(Oc3cc(F)c(F)cc3F)ccc2[N+](=O)[O-])c1=O [Compound 30]"
measurement = 1.0

[[record]]
compound = "COC(=O)Cn1c(=O)n(C)c(=O)n(-c2cc(Oc3ccc(Cl)cc3Cl)ccc2Br)c1=O [Compound 43]"
measurement = 4.0


Incoming: Look up Herbicidal effect rating, ORYSAT: COC(=O)Cn1c(=O)n(C)c(=O)n(-c2cc(Oc3ccc(Cl)c(Cl)c3Cl)ccc2[N+](=O)[O-])c1=O [Compound 26]
Outgoing: 3.0

Incoming: Data request, read-out Herbicidal effect rating, ORYSAT, for COC(=O)Cn1c(=O)n(C)c(=O)n(-c2cc(Oc3ccc(Cl)c(C)c3Cl)ccc2[N+](=O)[O-])c1=O [Compound 20]
Outgoing: 4.0
